System: cellular microtubules in HeLa cells
Assay: Quantitative assay of the cellular microtubule content (immunoluminescence)
Type: cell-based
Settings: Homo sapiens, 0.5 h, 30 min incubation, read-out: IC50 depolymerization of cellular microtubules
Measured Property: pIC50
Interpret pIC50 as the negative base-10 log of the concentration measured in mol/L.

Need pIC50, item COc1ccc(/C=C/C(=O)c2cc(OC)c(OC)c(OC)c2)cc1O
6.54

Now this one: COc1cc(C(=O)/C=C/c2cccc(O)c2)cc(OC)c1OC
3.97

----------
Tested on: DU145
Experiment: MTT assay, antiproliferative effect on DU145
Type: cell-based
Conditions: Homo sapiens, DU-145, 48 h, read-out: IC50 DU145 48 h
Answer each item with its documented IC50.
All answers are understood in µM, so give the number only.

Fill in: IC50 of COc1cc(C(=O)/C=C/c2coc3ccccc3c2=O)cc(OC)c1OC is ___
11.7

What would you report for COc1cc(C(=O)/C=C/c2coc3ccc(C)cc3c2=O)cc(OC)c1OC ?
3.31

Try this compound too: COc1cc(C(=O)/C=C/c2ccccc2O)cc(OC)c1OC
3.6

Now give it for COc1cc(O)ccc1/C=C/C(=O)c1cc(OC)c(OC)c(OC)c1 too.
2.69

Now consider COc1ccc(/C=C/C(=O)c2cc(OC)c(OC)c(OC)c2)cc1O .
0.031

Follow-up item: COc1cc(C(=O)/C=C/c2coc3ccc(C(C)C)cc3c2=O)cc(OC)c1OC
12.4

Same question for COc1ccc(O)cc1/C=C/C(=O)c1cc(OC)c(OC)c(OC)c1 please.
4.37

Also COc1ccc(/C=C/C(=O)c2cc(OC)c(OC)c(OC)c2)c(O)c1 , if possible.
1.33

Same lookup for COc1ccc(O)c(/C=C/C(=O)c2cc(OC)c(OC)c(OC)c2)c1 , please.
2.7

What about COc1cc(C(=O)/C=C/c2ccc(O)cc2)cc(OC)c1OC ?
11.2

----------
Test system: PC3
Test: MTT assay, antiproliferative effect on PC3
Assay type: cell-based
Settings: Homo sapiens, PC-3, 48 h, read-out: IC50 PC3 48 h
Would you kindly list pIC50 for each of these molecules?
Worth noting: pIC50 values are minus log10 of concentrations stated in mol/L.

For the molecule shown here, COc1cc(C(=O)/C=C/c2c[nH]c3ccccc23)cc(OC)c1OC , give the reported pIC50.
7.77

Do the same for COc1ccc(O)c(/C=C/C(=O)c2cc(OC)c(OC)c(OC)c2)c1 please
5.55

And COc1cc(C(=O)/C=C/c2coc3ccc(C(C)C)cc3c2=O)cc(OC)c1OC ?
4.89

----------
Give measured pIC50 for each item. Keep answers brief.
System: HT-29
Assay: MTT assay, antiproliferative effect on HT-29
Type: cell-based, human
Settings: Homo sapiens, HT-29, 48 h, 48 h, read-out: IC50 HT-29 48 h
pIC50: −log10 of the molar value.

# input compound: COc1cc(C(=O)/C=C/c2ccc(=O)[nH]c2)cc(OC)c1OC ; wanted: its pIC50
< 4.70

And for COc1cc(/C=C/C(=O)c2cc(OC)c(OC)c(OC)c2)ccc1O ?
< 4.70

Quick one: COc1ccc(O)cc1/C=C/C(=O)c1cc(OC)c(OC)c(OC)c1
< 4.70

----------
Would you kindly list IC50 for each of these molecules?
Test system: PC3
Experiment: MTT assay, antiproliferative effect on PC3
Format: cell-based
Settings: Homo sapiens, PC-3, 48 h, read-out: IC50 PC3 48 h
Just the number in µM, nothing appended.

Query: IC50; subject: COc1cc(C(=O)/C=C/c2cccc(O)c2)cc(OC)c1OC [chalcone 2]
3.44

Also COc1ccc(/C=C/C(=O)c2cc(OC)c(OC)c(OC)c2)c(O)c1 [chalcone 7] ?
1.47

Another: COc1cc(C(=O)/C=C/c2ccc(=O)[nH]c2)cc(OC)c1OC [chalcone 11]
17.7

Cited source: paper PMC11434868
